target: UniProtKB P02766; assay: Percentage of WT-TTR (3.6 uM) amyloid fibril formation at pH 4.4 upon incubation with the compound (7.2 uM)
Response field label: string, one of Fulfilled (Formation strictly below 4%) or Not fulfilled.

Q: Item `O=C(O)c1ccccc1O/N=C/c1cc(Br)c(O)c(Br)c1` : Formation beneath 4%, strictly?
A: Fulfilled

----------
target: Transthyretin (Homo sapiens) (UniProt P02766); test: Percentage compound remaining at the conclusion of the acid-mediated fibril formation assay (72 h) in absence of TTR, assay conditions, compound (7.2 uM), pH 4.4, 37C
Returns one of Y or N; Y when Activity is >= 8%.

Q: Could you tell me if the measured Activity of `O=C(O)c1ccc(O/N=C/c2ccccc2C(F)(F)F)cc1` reaches 8% or more?
A: Y

----------
target: Transthyretin (Homo sapiens) (UniProt P02766); test: Percentage of WT-TTR (3.6 uM) amyloid fibril formation at pH 4.4 upon incubation with the compound (7.2 uM)
measured.attribute: Formation (%)
Entry rule: numbers only, all in %.

Fc1cc(F)cc(/C=N/Oc2ccccc2)c1    95

Q: Given `O=C(O)c1ccc(O/N=C/c2cc(F)cc(F)c2)cc1` , state its recorded Formation.
A: 18

Q: Return reported Formation; argument: `Fc1cc(F)cc(/C=N/Oc2cccc(C(F)(F)F)c2)c1`
A: 88

Q: Given the entry `Fc1cc(F)cc(O/N=C/c2ccc(C(F)(F)F)cc2)c1` , report its measured Formation.
A: 77

Q: Which Formation is reported for this molecule? `O=C(O)c1ccc(O/N=C/c2ccccc2C(=O)O)cc1`
A: 97

Q: Could you share which Formation value was measured for `O=C(O)c1ccccc1/C=N/Oc1ccccc1` ?
A: 91

Q: So what's the measured Formation for this one? `FC(F)(F)c1ccc(/C=N/Oc2ccccc2)cc1`
A: 98

Q: Need Formation, item `O=C(O)c1ccccc1/C=N/Oc1cc(F)cc(F)c1`
A: 84

Q: Consider the molecule `Oc1c(Br)cc(/C=N/Oc2cc(F)cc(F)c2)cc1Br` and give its measured Formation.
A: 3

----------
Each item that follows carries a reported Binding stoichiometry.
target: Transthyretin (Homo sapiens); experiment: Binding stoichiometry to TTR in human blood plasma determined by antibody capture/HPLC method; assay type: cell-free
Please reply with the number alone, leaving off any unit.

Q: Binding stoichiometry for `O=C(O)c1ccc(O/N=C/c2c(Cl)cccc2Cl)cc1` ?
A: 0.81

Q: Fill blank: measured Binding stoichiometry of the compound `Oc1c(Br)cc(/C=N/Oc2cc(F)cc(F)c2)cc1Br` is ____.
A: 1.42

----------
molecular target: Transthyretin (Homo sapiens); experiment: Binding stoichiometry to TTR in human blood plasma determined by antibody capture/HPLC method; assay type: cell-free
measured.attribute: Binding stoichiometry
Enter a number only.

Solved entries (count: 5):
O=C(O)c1ccc(/C=N/Oc2ccccc2C(F)(F)F)cc1    1.38
O=C(O)c1ccc(O/N=C/c2cc(Cl)cc(Cl)c2)cc1    0.53
Oc1c(Br)cc(/C=N/Oc2ccccc2C(F)(F)F)cc1Br    1.86
Oc1c(Br)cc(/C=N/Oc2cccc(C(F)(F)F)c2)cc1Br    1.17
Oc1c(I)cc(/C=N/Oc2cccc(C(F)(F)F)c2)cc1I    1.02

Q: So what does the record say about Binding stoichiometry for `Oc1c(I)cc(/C=N/Oc2ccccc2)cc1I` ?
A: 0.89

Q: // returns reported Binding stoichiometry for input `Oc1c(Br)cc(/C=N/Oc2cc(Cl)cc(Cl)c2)cc1Br`
A: 0.69

Q: Entry `O=C(O)c1ccc(O/N=C/c2ccccc2C(F)(F)F)cc1` has what Binding stoichiometry?
A: 1.31
